Let's look at some variants and their measured normalized RNA/DNA level without ligand (log10).
B1: library; a variant is named by its letters at N, in order (parent)
chain: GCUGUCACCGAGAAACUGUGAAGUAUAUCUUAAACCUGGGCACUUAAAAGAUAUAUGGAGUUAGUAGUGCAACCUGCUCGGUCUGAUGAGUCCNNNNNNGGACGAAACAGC

variants of: B1; experiment: normalized RNA/DNA level without ligand (relative to sTRSVctl = 100) (log10 (% of sTRSVctl)); HEK293T; ligand: cyclic di-GMP (c-di-GMP-II aptamer); higher = less ribozyme self-cleavage, higher mRNA level; conditions: reporter: mCherry (pCS4076), ligand present: no
Kindly provide the number alone.

Record excerpt, results attached:
1) GCUGUCACCGAGAAACUGUGAAGUAUAUCUUAAACCUGGGCACUUAAAAGAUAUAUGGAGUUAGUAGUGCAACCUGCUCGGUCUGAUGAGUCCUUUGCAGGACGAAACAGC 1.78
2) GCUGUCACCGAGAAACUGUGAAGUAUAUCUUAAACCUGGGCACUUAAAAGAUAUAUGGAGUUAGUAGUGCAACCUGCUCGGUCUGAUGAGUCCGGCAGUGGACGAAACAGC 1.76
3) GCUGUCACCGAGAAACUGUGAAGUAUAUCUUAAACCUGGGCACUUAAAAGAUAUAUGGAGUUAGUAGUGCAACCUGCUCGGUCUGAUGAGUCCUAUGACGGACGAAACAGC 1.71
4) GCUGUCACCGAGAAACUGUGAAGUAUAUCUUAAACCUGGGCACUUAAAAGAUAUAUGGAGUUAGUAGUGCAACCUGCUCGGUCUGAUGAGUCCACGACAGGACGAAACAGC 1.52
5) GCUGUCACCGAGAAACUGUGAAGUAUAUCUUAAACCUGGGCACUUAAAAGAUAUAUGGAGUUAGUAGUGCAACCUGCUCGGUCUGAUGAGUCCUGGUAAGGACGAAACAGC 1.56

Req: Any idea what its normalized RNA/DNA level without ligand (log10) is? The variant is `GCUGUCACCGAGAAACUGUGAAGUAUAUCUUAAACCUGGGCACUUAAAAGAUAUAUGGAGUUAGUAGUGCAACCUGCUCGGUCUGAUGAGUCCUGCUCCGGACGAAACAGC`
Resp: 1.86

Req: Any idea what its normalized RNA/DNA level without ligand (log10) is? The variant is `GCUGUCACCGAGAAACUGUGAAGUAUAUCUUAAACCUGGGCACUUAAAAGAUAUAUGGAGUUAGUAGUGCAACCUGCUCGGUCUGAUGAGUCCCCAAGCGGACGAAACAGC`
Resp: 1.59

Req: Any idea what its normalized RNA/DNA level without ligand (log10) is? The variant is `GCUGUCACCGAGAAACUGUGAAGUAUAUCUUAAACCUGGGCACUUAAAAGAUAUAUGGAGUUAGUAGUGCAACCUGCUCGGUCUGAUGAGUCCAUACGAGGACGAAACAGC`
Resp: 1.46

Req: Any idea what its normalized RNA/DNA level without ligand (log10) is? The variant is `GCUGUCACCGAGAAACUGUGAAGUAUAUCUUAAACCUGGGCACUUAAAAGAUAUAUGGAGUUAGUAGUGCAACCUGCUCGGUCUGAUGAGUCCGGGGCAGGACGAAACAGC`
Resp: 1.75

Req: Any idea what its normalized RNA/DNA level without ligand (log10) is? The variant is `GCUGUCACCGAGAAACUGUGAAGUAUAUCUUAAACCUGGGCACUUAAAAGAUAUAUGGAGUUAGUAGUGCAACCUGCUCGGUCUGAUGAGUCCCGGUCGGGACGAAACAGC`
Resp: 1.78

Req: Any idea what its normalized RNA/DNA level without ligand (log10) is? The variant is `GCUGUCACCGAGAAACUGUGAAGUAUAUCUUAAACCUGGGCACUUAAAAGAUAUAUGGAGUUAGUAGUGCAACCUGCUCGGUCUGAUGAGUCCCUGAGCGGACGAAACAGC`
Resp: 1.76

Req: Any idea what its normalized RNA/DNA level without ligand (log10) is? The variant is `GCUGUCACCGAGAAACUGUGAAGUAUAUCUUAAACCUGGGCACUUAAAAGAUAUAUGGAGUUAGUAGUGCAACCUGCUCGGUCUGAUGAGUCCCACAAGGGACGAAACAGC`
Resp: 1.66

Req: Any idea what its normalized RNA/DNA level without ligand (log10) is? The variant is `GCUGUCACCGAGAAACUGUGAAGUAUAUCUUAAACCUGGGCACUUAAAAGAUAUAUGGAGUUAGUAGUGCAACCUGCUCGGUCUGAUGAGUCCAGUUGGGGACGAAACAGC`
Resp: 1.63

Req: Any idea what its normalized RNA/DNA level without ligand (log10) is? The variant is `GCUGUCACCGAGAAACUGUGAAGUAUAUCUUAAACCUGGGCACUUAAAAGAUAUAUGGAGUUAGUAGUGCAACCUGCUCGGUCUGAUGAGUCCGCACCUGGACGAAACAGC`
Resp: 1.66

Req: Any idea what its normalized RNA/DNA level without ligand (log10) is? The variant is `GCUGUCACCGAGAAACUGUGAAGUAUAUCUUAAACCUGGGCACUUAAAAGAUAUAUGGAGUUAGUAGUGCAACCUGCUCGGUCUGAUGAGUCCUAAUGGGGACGAAACAGC`
Resp: 1.68

Req: Any idea what its normalized RNA/DNA level without ligand (log10) is? The variant is `GCUGUCACCGAGAAACUGUGAAGUAUAUCUUAAACCUGGGCACUUAAAAGAUAUAUGGAGUUAGUAGUGCAACCUGCUCGGUCUGAUGAGUCCCACAUUGGACGAAACAGC`
Resp: 1.58

Req: Any idea what its normalized RNA/DNA level without ligand (log10) is? The variant is `GCUGUCACCGAGAAACUGUGAAGUAUAUCUUAAACCUGGGCACUUAAAAGAUAUAUGGAGUUAGUAGUGCAACCUGCUCGGUCUGAUGAGUCCAGACGCGGACGAAACAGC`
Resp: 1.65

Req: Any idea what its normalized RNA/DNA level without ligand (log10) is? The variant is `GCUGUCACCGAGAAACUGUGAAGUAUAUCUUAAACCUGGGCACUUAAAAGAUAUAUGGAGUUAGUAGUGCAACCUGCUCGGUCUGAUGAGUCCAGUGCGGGACGAAACAGC`
Resp: 1.7

Req: Any idea what its normalized RNA/DNA level without ligand (log10) is? The variant is `GCUGUCACCGAGAAACUGUGAAGUAUAUCUUAAACCUGGGCACUUAAAAGAUAUAUGGAGUUAGUAGUGCAACCUGCUCGGUCUGAUGAGUCCCUAGUGGGACGAAACAGC`
Resp: 1.53

Req: Any idea what its normalized RNA/DNA level without ligand (log10) is? The variant is `GCUGUCACCGAGAAACUGUGAAGUAUAUCUUAAACCUGGGCACUUAAAAGAUAUAUGGAGUUAGUAGUGCAACCUGCUCGGUCUGAUGAGUCCCUGCGGGGACGAAACAGC`
Resp: 1.82

Req: Any idea what its normalized RNA/DNA level without ligand (log10) is? The variant is `GCUGUCACCGAGAAACUGUGAAGUAUAUCUUAAACCUGGGCACUUAAAAGAUAUAUGGAGUUAGUAGUGCAACCUGCUCGGUCUGAUGAGUCCGCACCCGGACGAAACAGC`
Resp: 1.66
